Collected fluorescence artifact activation values appear next to each entry.
- assay.summary: IANBD-channel fluorescence artefacts in buffer – biochemical, artefact control for cardiac RTF calcium sensitizer project, confirmation (AID 504382)
- measurement.setup: IANBD fluorescence interference counterscreen, EC20 Ca2+, at 7.2 µM, active compounds read high
The whole screen tested about 2,500 compounds, of which about 460 (18%) were called active. These entries were drawn from the full list.
Express your answer in %, writing the number without its unit.

Example molecules with recorded fluorescence artifact activation:
Query: For the molecule `C#C[C@]1(O)CC[C@H]2[C@@H]3CCC4=Cc5nc6nc7ccccc7n6cc5C[C@]4(C)[C@H]3CC[C@@]21C` , what fluorescence artifact activation is on record?
Reply: 0.16

Query: Item under review: `CCOCCCn1c(N)c(C(=O)Nc2sc3c(c2C(=O)OC)CCCC3)c2nc3ccccc3nc21` . Reported fluorescence artifact activation?
Reply: 2.92

Query: Which value of fluorescence artifact activation has been reported for `CN1C(=O)C(=Cc2ccc(N3CCCCCC3)o2)C(=O)N(C)C1=S` in the records?
Reply: 35.9

Query: Entry under review: `CCN1C(=O)C(=Cc2ccc(N3CCOCC3)o2)C(=O)N(CC)C1=S` . Reported fluorescence artifact activation?
Reply: 0.14

Others:
Query: Request the reported fluorescence artifact activation associated with `CN1C(=O)C(=Cc2ccc(N3CCOCC3)o2)C(=O)N(C)C1=O`
Reply: 16.2

###

- assay.summary: IANBD-channel fluorescence artefacts in buffer – biochemical, artefact control for cardiac RTF calcium sensitizer project, confirmation (AID 504382)
- measurement.setup: IANBD fluorescence interference counterscreen, EC20 Ca2+, at 7.2 µM, active compounds read high
Among all 2,500 compounds or so, about 460 (18%) were called active. Only a sample is shown.
// reported fluorescence artifact activation for each item listed
Enter your answer as a number in %; do not include the unit.

Check out these entries, answers already filled in.
Query: Consider the compound shown here: `Nc1c2c(nc3ccccc13)CCN(Cc1ccccc1)C2` What is its recorded fluorescence artifact activation?
Reply: 26.4

Query: What value of measured fluorescence artifact activation is listed for `CCn1c(O)c(C=Nc2ccc(N3CCOCC3)cc2)c(=O)n(CC)c1=S` ?
Reply: 23.9

Query: Request the reported fluorescence artifact activation associated with Nc1c(C(=O)NCC2CCCO2)c2nc3ccccc3nc2n1Cc1ccco1 (configuration not stated)
Reply: 732

***
Query: // lookup fluorescence artifact activation for `CCCCCCC(=O)N/N=C/c1c(O)n(CCc2ccccc2)c(=O)[nH]c1=O`
Reply: 0.04

Query: Can you look up the measured fluorescence artifact activation of C/C(=N\N1CCCCC1c1cccnc1)c1c(O)n(C2CCCCC2)c(=S)[nH]c1=O (configuration not stated) for me?
Reply: 13.8

Query: Fill in the blank: the reported fluorescence artifact activation of `O=C1NC(=S)SC1=Cc1ccc(N(CCCl)CCCl)cc1` is ____.
Reply: -0.09

###

- assay.summary: IANBD-channel fluorescence artefacts in buffer – biochemical, artefact control for cardiac RTF calcium sensitizer project, confirmation (AID 504382)
- measurement.setup: IANBD fluorescence interference counterscreen, EC20 Ca2+, at 7.2 µM, active compounds read high
The campaign covered roughly 2,500 compounds. About 460 (18%) were called active. The list is a sample of the results.
# cutoff 20% applies to fluorescence artifact activation; >= gives MET, < gives NOT MET

For orientation, consider the following solved cases.
Query: Is reported fluorescence artifact activation greater than or equal to 20% here: `COC(=O)C1=C(c2ccc(F)cc2OCc2ccccc2)C[C@@H]2CC[C@H]1N2C(=O)NCc1ccc(OC)c(OC)c1`
Reply: MET

Query: Hello, I need to know if `CN1Cc2c(c(C#N)c(N)n(C)c2=S)CC1(C)C` has measured fluorescence artifact activation not below 20%. Thanks!
Reply: NOT MET

Query: Kindly determine if fluorescence artifact activation recorded for `COc1ccc(-n2c(O)c(/C=C/C=Nc3ccccc3)c(=O)[nH]c2=O)cc1` is above or exactly 20%.
Reply: NOT MET

Next:
Query: Is fluorescence artifact activation at least 20%? Consider `O=[N+]([O-])c1ccc(N2CCCC2)c2ncccc12`
Reply: NOT MET

###

- assay.summary: IANBD-channel fluorescence artefacts in buffer – biochemical, artefact control for cardiac RTF calcium sensitizer project, confirmation (AID 504382)
- measurement.setup: IANBD fluorescence interference counterscreen, EC20 Ca2+, at 7.2 µM, active compounds read high
Out of some 2,500 compounds screened, about 460 (18%) were called active. Not all results are given here.
The entries below come with measured fluorescence artifact activation values attached.
# number only, unit % dropped from output

Example molecules with recorded fluorescence artifact activation:
Query: Requested field: fluorescence artifact activation. Item: `Cc1ccccc1N1C(=O)NC(=O)/C(=C/c2ccc(N3CCOCC3)o2)C1=O`
Reply: 14.1

Query: Looking for the measured fluorescence artifact activation of `Cc1ccc(/C=C2/Sc3ccc(C(=O)N4CCC5(CC4)OCCO5)cc3NC2=O)cc1` , can you help?
Reply: 38.7

Query: What value of fluorescence artifact activation has been recorded for this entry: `Cc1cccc(N2C(=O)/C(=C/c3ccc(N4CCN(C)CC4)o3)C(=O)NC2=S)c1C`
Reply: 0.2

Continuing:
Query: So what's the measured fluorescence artifact activation for this one? `Cc1ccc(C)c(Cn2c(C(=O)O)c(C=O)c3ccccc32)c1`
Reply: 0.2

Query: Given the molecule `COc1ccc(N=Nc2c(O)[nH]c(=S)[nH]c2=O)cc1` , what is its reported fluorescence artifact activation?
Reply: 0.58

Query: Recorded fluorescence artifact activation of `Cc1ccccc1N1C(=O)NC(=O)/C(=C\c2cc(Br)c(N3CCOCC3)o2)C1=O` , please.
Reply: -0.03

Query: // returns reported fluorescence artifact activation for input `COc1ccc(CC(=O)N2CCN(C)CC2)cc1OC`
Reply: 0.89

Query: Returns the measured fluorescence artifact activation for the input molecule. Input: CCN1C[C@]2(CO)CC[C@H](OC)[C@@]34C5C[C@H]6[C@H](OC)C5[C@](O)(C[C@H]6OC)[C@@H](C(OC)C23)[C@@H]14 (stereo not given in full)
Reply: 2.26

Query: Bench note: what fluorescence artifact activation did `O=c1[nH]c(=S)n(-c2ccccc2Cl)c(O)c1C=NCCN1CCNCC1` show?
Reply: 660

Query: Returns the measured fluorescence artifact activation for the input molecule. Input: `CCOc1ccc(N2C(=O)NC(=O)/C(=C\c3ccc(N4CCCCC4)o3)C2=O)cc1`
Reply: 51.4

###

- assay.summary: IANBD-channel fluorescence artefacts in buffer – biochemical, artefact control for cardiac RTF calcium sensitizer project, confirmation (AID 504382)
- measurement.setup: IANBD fluorescence interference counterscreen, EC20 Ca2+, at 7.2 µM
The whole screen tested about 2,500 compounds, of which about 460 (18%) were called active.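 How the source made its calls: active means mean activation above a cutoff of low control average plus 3 SD from the earlier screen (cut at about 12% in these data); inactive means the rest.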 Only a sample is shown.
Log the outcome using a class from active, inactive

Sample answers from the record:
Query: What was the test verdict on `N#CC(C#N)=Cc1ccc(C=C(C#N)C#N)cc1` ?
Reply: inactive

Query: So what was the verdict on `CN1C(=O)/C(=C/c2ccc(N3CCCCCC3)o2)C(=O)NC1=S` in this test?
Reply: inactive

---
Query: What is the recorded call for this compound in the test? `Cn1cc(C=C(C#N)C#N)c2ccccc21`
Reply: active

###

- assay.summary: IANBD-channel fluorescence artefacts in buffer – biochemical, artefact control for cardiac RTF calcium sensitizer project, confirmation (AID 504382)
- measurement.setup: IANBD fluorescence interference counterscreen, EC20 Ca2+, at 7.2 µM, active compounds read high
In all, about 2,500 compounds went through this assay and about 460 (18%) were called active. A selection follows.
# label = Yes if fluorescence artifact activation >= 0.3% else No

// below: answered compounds
Query: Would you say `CCN(CC)c1ccc(/C=C2\C(=O)NC(=S)N(c3ccc(OC)cc3OC)C2=O)o1` shows fluorescence artifact activation at minimum 0.3%?
Reply: No

Query: Can `O=c1[nH]c(=S)n(-c2ccc(Br)cc2)c(O)c1C=Nc1ccc(N2CCOCC2)cc1` be said to have fluorescence artifact activation at or above 0.3%?
Reply: No

Next:
Query: Exam item: decide whether the reported fluorescence artifact activation for `CCN(CC)c1ccc(N=Cc2c(O)n(Cc3ccco3)c(=O)[nH]c2=O)cc1` is at least 0.3%.
Reply: No

Query: Exam item: decide whether the reported fluorescence artifact activation for OC12CCCCC1C(c1ccccc1)NCC2 (stereo unspecified) is at least 0.3%.
Reply: No

Query: Textbook exercise: given the entry `C=CCN1C(=O)/C(=C/c2ccc(N3CCOCC3)o2)C(=O)NC1=S` , state whether its fluorescence artifact activation is greater than or equal to 0.3%.
Reply: Yes

Query: Could you please find out whether `COC(=O)C1=C(c2cccc(OC)c2OC)C[C@@H]2CC[C@H]1N2C(=O)NCCCOC(C)C` has fluorescence artifact activation that meets 0.3% or exceeds it?
Reply: Yes

Query: Reported fluorescence artifact activation at or above 0.3%? `O=c1[nH]c(=O)n(C2CCCCC2)c(O)c1/C=C/C=Nc1ccccc1`
Reply: No

Query: Is fluorescence artifact activation for `O=C1NC(=O)N(Cc2ccccc2)C(=O)/C1=C\N1CCCc2ccccc21` at or above 0.3%?
Reply: Yes

Query: Assess whether reported fluorescence artifact activation for `CCCCC(=O)N/N=C/c1c(O)n(CC)c(=S)n(CC)c1=O` sits at 0.3% or higher.
Reply: No
